- test.target: Human TASK-1 channels (Homo sapiens (Human), UniProt O14649)
- Sequence (O14649 whole entry): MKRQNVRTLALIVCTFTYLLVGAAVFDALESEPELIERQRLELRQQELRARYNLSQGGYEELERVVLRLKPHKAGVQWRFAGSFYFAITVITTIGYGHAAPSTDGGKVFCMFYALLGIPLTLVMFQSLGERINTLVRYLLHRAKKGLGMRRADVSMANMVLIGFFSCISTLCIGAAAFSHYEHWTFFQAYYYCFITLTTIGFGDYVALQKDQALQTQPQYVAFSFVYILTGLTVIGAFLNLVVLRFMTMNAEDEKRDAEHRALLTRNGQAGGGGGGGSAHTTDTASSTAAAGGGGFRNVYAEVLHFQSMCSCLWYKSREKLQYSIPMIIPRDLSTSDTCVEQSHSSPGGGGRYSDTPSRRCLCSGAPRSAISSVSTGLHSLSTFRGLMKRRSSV
- method.notes: Determination of the activity on the TASK-1 channel in Xenopus oocytes (two-microelectrode voltage clamp)
- condition.label: human TASK-1 expressed in Xenopus oocytes, room temperature; read-out: IC50 value for TASK-1 inhibition
parameter.measured: IC50 (nM)

// known answers, use as guide
[
  {
    "molecule": "C[C@@H](NC(=O)c1cc(C(=O)N2CCC[C@@H]2C(F)(F)F)c2n1CCOC2)c1ccc(F)cc1 [16dk]",
    "observed.measurement": 160
  },
  {
    "molecule": "CC[C@H](NC(=O)c1cc(C(=O)N2CCC[C@@H]2C)n2c1COCC2)c1cnc(C(F)(F)F)cc1C(F)(F)F [16bx]",
    "observed.measurement": 480
  },
  {
    "molecule": "CC[C@H](NC(=O)c1cc(C(=O)N[C@H](CC)c2ccccc2)c2n1CCOC2)c1cnc(OC)cn1 [16hz]",
    "observed.measurement": 130
  },
  {
    "molecule": "CC[C@@H](NC(=O)c1cc(C(=O)N(C)CC(=O)OC(C)C)n2c1COCC2)c1ccccc1 [16iu]",
    "observed.measurement": 120
  },
  {
    "molecule": "CC[C@@H](NC(=O)c1cc(C(=O)N2CCC[C@@H]2C)n2c1COC(C)(C)C2)c1ccc(C(F)(F)F)nc1 [16pi]",
    "observed.measurement": 850
  },
  {
    "molecule": "CC[C@@H](NC(=O)c1cc(C(=O)Nc2nc(C)c(C)s2)c2n1CCCC2)c1ccccc1 [16me]",
    "observed.measurement": 340
  },
  {
    "molecule": "CC[C@@H](NC(=O)c1cc(C(=O)N[C@@H](C)c2ccc(F)cc2)n2c1COCC2)c1ncccn1 [16ef]",
    "observed.measurement": 820
  },
  {
    "molecule": "CC[C@@H](NC(=O)c1cc(C(=O)N2CCC[C@@H]2C)n2c1COCC2)c1ccc(C(F)(F)F)cc1F [16ct]",
    "observed.measurement": 210
  }
]

[A] CC[C@@H](NC(=O)c1cc(C(=O)NCC(=O)OC(C)C)n2c1COCC2)c1ccccc1 [16iw]
[B] CC[C@@H](NC(=O)c1cc(C(=O)N[C@H](C)c2ccc(F)cc2)c2n1CCS2)c1ccccc1 [16ku]
Task for the reader: decide whether A or B has the larger IC50. State the label of the item chosen.
A

[1] O=C(N[C@@H](c1ccc(F)cc1)C1CC1)c1cc(C(=O)N2CCCC2)n2c1COCC2 [16dg]
[2] CC[C@@H](NC(=O)c1cc(C(=O)N2CCC[C@@H]2C)c2n1CSC2)c1ccccc1 [16kx]
[3] CC[C@@H](NC(=O)c1cc(C(=O)N[C@H](CC)c2cccc(NS(C)(=O)=O)c2)n2c1COCC2)c1ccccc1 [16ri]
Order the records, beginning with the lowest IC50 and ending with the highest. Returns: the labels arranged in the requested order.
2, 1, 3
